Provenance of the data: patent US20160083466A1

- MEASUREMENT TARGET: T1, mouse IL-25 expressed with a C-terminal myc-myc-hexahistidine tag (mouse)
- T1 construct: also called Mouse IL-25-MMH; mIL-25-MMH
- T1 chain: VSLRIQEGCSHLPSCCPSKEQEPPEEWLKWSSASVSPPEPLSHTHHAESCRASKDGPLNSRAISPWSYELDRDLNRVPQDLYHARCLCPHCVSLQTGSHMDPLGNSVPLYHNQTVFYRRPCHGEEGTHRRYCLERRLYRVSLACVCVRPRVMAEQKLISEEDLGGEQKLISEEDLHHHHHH
- MEASUREMENT DESCRIPTION: SPR Biacore, antibody captured, 37C;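 also: Real-time sensorgrams of IL-25-MMH binding to purified anti-IL-25 antibodies, rate constants obtained by fitting a 1:1 binding model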

BINDER | UNITS SYMBOL | 100 nM Mouse IL-25-MMH Bound (RU)
H4H10871P (antibody, human IgG4, V domains shown, H4H prefix = human IgG4 Fc) VH: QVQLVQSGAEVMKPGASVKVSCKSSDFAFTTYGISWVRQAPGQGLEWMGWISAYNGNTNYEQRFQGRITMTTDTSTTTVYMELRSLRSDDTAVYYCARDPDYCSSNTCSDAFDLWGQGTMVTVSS VL: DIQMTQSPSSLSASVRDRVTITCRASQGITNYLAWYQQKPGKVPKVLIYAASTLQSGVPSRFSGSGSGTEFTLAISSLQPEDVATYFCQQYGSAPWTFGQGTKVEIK | RU | 41
H4H10905P (antibody, human IgG4, V domains shown, H4H prefix = human IgG4 Fc) VH: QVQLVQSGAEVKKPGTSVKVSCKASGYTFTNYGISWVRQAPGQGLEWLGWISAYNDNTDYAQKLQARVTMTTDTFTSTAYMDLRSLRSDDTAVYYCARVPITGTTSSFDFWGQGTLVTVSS VL: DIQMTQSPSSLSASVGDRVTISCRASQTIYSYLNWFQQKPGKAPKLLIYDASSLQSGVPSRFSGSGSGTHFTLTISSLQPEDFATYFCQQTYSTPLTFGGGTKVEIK | RU | 47
H4H10897P (antibody, human IgG4, V domains shown, H4H prefix = human IgG4 Fc) VH: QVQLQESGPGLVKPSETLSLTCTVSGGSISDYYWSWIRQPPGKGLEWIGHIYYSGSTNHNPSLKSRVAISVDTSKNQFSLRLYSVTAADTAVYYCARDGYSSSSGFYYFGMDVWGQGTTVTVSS VL: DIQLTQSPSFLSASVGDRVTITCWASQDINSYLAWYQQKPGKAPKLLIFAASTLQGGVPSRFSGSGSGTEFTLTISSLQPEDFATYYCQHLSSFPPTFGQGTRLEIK | RU | 17
